Target: hT40 (Homo sapiens, UniProt P10636)
Sequence (P10636 1-441 isoform P10636-8): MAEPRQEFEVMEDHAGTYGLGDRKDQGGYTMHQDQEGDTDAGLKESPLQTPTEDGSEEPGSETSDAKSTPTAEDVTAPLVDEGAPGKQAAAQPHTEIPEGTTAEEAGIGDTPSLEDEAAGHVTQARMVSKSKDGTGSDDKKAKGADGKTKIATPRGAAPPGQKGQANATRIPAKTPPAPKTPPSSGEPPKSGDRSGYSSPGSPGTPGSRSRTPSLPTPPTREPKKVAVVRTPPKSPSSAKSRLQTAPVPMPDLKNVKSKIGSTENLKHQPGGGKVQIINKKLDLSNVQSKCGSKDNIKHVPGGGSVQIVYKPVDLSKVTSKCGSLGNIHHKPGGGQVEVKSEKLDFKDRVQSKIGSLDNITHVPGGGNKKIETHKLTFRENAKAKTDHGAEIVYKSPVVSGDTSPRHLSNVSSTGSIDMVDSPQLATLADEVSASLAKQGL
Assay: Biacore X100 SPR, scAb captured via anti-HuCk, hT40 as analyte
Type: binding
Conditions: scAb, Table 23, T441 (hT40)
Method: Surface plasmon resonance (SPR) is widely regarded as the gold standard for real time measurement of protein-protein interactions such as antibody binding. […] The single cycle kinetics protocol was similar and utilised the same level of scAb capture. […] Binding responses were analysed in Biacore X100 evaluation software and data fitted to a 1:1 binding model to obtain kinetic and affinity characterisation.
Catalogue of kd values
Give the number; s⁻¹ is assumed, so skip it.

// known answers, use as guide
CB7: anti-tau clone, SEQ ID NO: 364 (protein, CB7 amino acid sequence) scFv: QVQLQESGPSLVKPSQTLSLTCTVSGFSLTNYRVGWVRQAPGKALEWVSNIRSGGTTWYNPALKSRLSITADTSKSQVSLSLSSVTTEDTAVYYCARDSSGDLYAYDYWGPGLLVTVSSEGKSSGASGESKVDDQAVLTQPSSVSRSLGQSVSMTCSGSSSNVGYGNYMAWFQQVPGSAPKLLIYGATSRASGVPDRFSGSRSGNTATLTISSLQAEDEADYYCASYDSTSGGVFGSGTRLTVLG	0.0006936
CC7: anti-tau clone, SEQ ID NO: 365 (protein, CC7 amino acid sequence) scFv: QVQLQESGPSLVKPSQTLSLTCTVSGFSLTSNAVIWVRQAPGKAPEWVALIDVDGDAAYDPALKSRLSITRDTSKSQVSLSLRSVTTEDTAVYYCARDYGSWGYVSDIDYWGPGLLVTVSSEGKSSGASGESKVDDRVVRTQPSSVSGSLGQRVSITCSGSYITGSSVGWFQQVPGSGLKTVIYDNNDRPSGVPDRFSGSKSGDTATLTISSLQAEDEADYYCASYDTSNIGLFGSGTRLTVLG	0.0003659
NS2A1: anti-tau clone, SEQ ID NO: 220 (protein, NS2A1 amino acid sequence) scFv: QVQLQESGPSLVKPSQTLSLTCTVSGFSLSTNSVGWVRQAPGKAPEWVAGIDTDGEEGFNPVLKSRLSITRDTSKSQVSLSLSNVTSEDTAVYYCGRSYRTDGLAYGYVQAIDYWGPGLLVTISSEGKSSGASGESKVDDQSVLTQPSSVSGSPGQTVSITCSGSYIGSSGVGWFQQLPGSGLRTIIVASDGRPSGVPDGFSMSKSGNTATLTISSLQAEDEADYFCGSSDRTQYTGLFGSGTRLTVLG	0.0007393

Next up:
Form field: reported kd of S1D12: anti-tau clone from immunised sheep, SEQ ID NO: 32 (protein, S1D12 amino acid sequence) scFv: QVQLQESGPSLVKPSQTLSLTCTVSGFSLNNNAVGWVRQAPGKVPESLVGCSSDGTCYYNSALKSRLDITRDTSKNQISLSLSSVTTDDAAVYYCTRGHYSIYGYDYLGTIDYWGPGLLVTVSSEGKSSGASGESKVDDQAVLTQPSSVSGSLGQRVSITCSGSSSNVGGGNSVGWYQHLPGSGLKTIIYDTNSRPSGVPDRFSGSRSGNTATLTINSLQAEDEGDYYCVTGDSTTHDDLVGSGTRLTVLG
0.00015
